assayedTarget: GPR139 (Homo sapiens)
Sequence (Q6DWJ6 whole entry): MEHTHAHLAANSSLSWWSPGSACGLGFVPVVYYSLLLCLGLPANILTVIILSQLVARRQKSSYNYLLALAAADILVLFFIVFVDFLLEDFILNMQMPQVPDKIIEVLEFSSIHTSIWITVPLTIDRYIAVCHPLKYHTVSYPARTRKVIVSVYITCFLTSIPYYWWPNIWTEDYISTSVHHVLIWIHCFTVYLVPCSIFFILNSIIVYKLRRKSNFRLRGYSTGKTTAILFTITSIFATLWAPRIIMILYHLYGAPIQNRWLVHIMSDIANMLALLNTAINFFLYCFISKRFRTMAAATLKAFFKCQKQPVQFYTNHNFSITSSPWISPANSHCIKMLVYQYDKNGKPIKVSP
measurementDescription: GPR139 Agonist titration / agonist counterscreen assay (calcium detection, HEK-GPR139 cells)
Format: cell-based
Set-up: expressed in transfected cells; host or cells: HEK Aequorin cells, Maxcyte transient transfection
assayContext: GPR139 Agonist Activity; HEK-GPR139 cells; read-out: EC50
Attribute: EC50

| compound | EC50 / nM |
| --- | --- |
| COc1ccc2c(CC(=O)NNC(=O)c3cc(-c4ccccc4)no3)coc2c1 | 441 |
| COc1ccc2c(c1)C[C@H](C(=O)Nc1ccc(-c3cn[nH]c3)cc1OCC1CNC1)NC2.O=C(O)C(F)(F)F.O=C(O)C(F)(F)F.O=C(O)C(F)(F)F | 274 |
| Cc1c(C=O)c2ccccc2n1CC(=O)NCc1ccccc1 | 898 |
| CCOC(=O)C1C2C=CC3(CN(C(C)c4ccc(Br)cc4)C(=O)C13)O2 (centres unmarked) | 853 |
| Cc1ccc(CNC(=O)Cn2nc(-c3ccc(C)cc3)ccc2=O)cc1 | 1300 |
| COc1cc(C(=O)NNC(=O)C(C)Oc2ccc(Cl)cc2Cl)cc(OC)c1OC (centres unmarked) | 352 |
| O=C(NCCS(=O)(=O)N1CCc2ccccc2C1)C(c1ccccc1)c1ccccc1 | 2300 |
| O=C(CNc1nnc(CCCOc2ccc(Cl)cc2Cl)o1)Nc1nccs1 | 516 |
| COc1cc(OC)cc(C(=O)NNC(=O)CCc2ccccc2)c1 | 418 |
| Cc1cc(=O)n2nc(NCc3ccccc3Cl)nc2[nH]1 | 1200 |
| COc1cc(OC)cc(C(=O)NNC(=O)COc2cc(C)c(Cl)c(C)c2)c1 | 971 |
| O=C(CN1CCCN(Cc2ccc(F)cc2Cl)C1=O)NC1CCCC1 | 289 |
| O=C(Cn1ncn2c(cc3sccc32)c1=O)NCCc1ccc(Cl)cc1 | 839 |
| COc1ccc(NC(=O)NC(O)(O)c2cccc(C(C)=O)c2)cc1 | 313 |
| O=C(O)CC1CCCC1c1ccccc1 (centres unmarked) | 930 |
| COC(=O)c1ccc(CNC(=O)Nc2ccc(-c3cn[nH]c3)cc2)cc1.O=C(O)C(F)(F)F | 1900 |
| CC(C)C(=O)NNC(=O)C(C)Oc1ccc(Cl)cc1Cl (centres unmarked) | 2000 |
| Cc1ccccc1-c1nnc(CN2CCc3ccccc3C2)o1 | 272 |
| Cc1[nH]ncc1-c1ccc(NC(=O)C2COc3ccc(F)cc3C2)c(OCCN2CCOCC2)c1.O=C(O)C(F)(F)F.O=C(O)C(F)(F)F (centres unmarked) | 629 |
| CCCCCCC(=O)NNC(=O)c1c(O)c2ccccc2n(CCC)c1=O | 4100 |
| CCCC1(CCC)NC(=O)N(CC(=O)NCc2ccc(Cl)cc2)C1=O | 408 |
| Cc1ccc(Nc2cn[nH]c(=S)n2)c(C)c1 | 743 |
| O=C(Cn1ccc2ccccc21)NC1CCN(Cc2ccccc2)CC1 | 931 |
| Cc1nn(-c2ccccc2)nc1C(=O)NNC(=O)CSCc1cccc2ccccc12 | 1700 |
| O=C(CC1CCN(Cc2ccccc2O)C1=O)C1CCC(c2cccc(O)c2)C(O)C1 (centres unmarked) | 328 |
| CSc1ccc(CCNC(=O)Cn2ncc3c(=O)oc4ccccc4c32)cc1 | 355 |
| Cc1ccc(CN2CC34C=CC(O3)C(C(=O)NCCC3=CCCCC3)C4C2=O)cc1 (centres unmarked) | 1800 |
| CN(Cc1ccc[nH]1)C(=O)CN1C(=O)NC2(CCc3ccccc3C2)C1=O (centres unmarked) | 1100 |
| COC(=O)c1ccc(CSc2nnc(N)s2)cc1 | 290 |

Data credit: patent US20250099420A1
